# Tested On: RAC-beta serine/threonine-protein kinase (Homo sapiens)
# Test Details: PKB In Vitro Enzyme Assay
pIC50: −log10 of the molar value.
Rule: 1 for pIC50 not less than 6, -1 for anything less.

Decide: is the reported value of pIC50 for Cc1cncc2cccc(S(=O)(=O)N[C@@H]3CN[C@H](COCc4ccc(Cl)cc4)C3)c12 equal to or greater than 6?
-1

Entry to check: O=S(=O)(NC[C@H]1CC[C@@H](COCc2ccc(Cl)cc2)N1)c1cccc2cnccc12
-1

Entry to check: O=c1[nH]ccc2c(S(=O)(=O)N[C@@H]3CN[C@H](COCc4ccc(Cl)cc4)C3)cccc12
1

Entry to check: O=S(=O)(NC1CCNC1)c1cccc2cnccc12 (stereo not given)
-1

Entry to check: O=S(=O)(N[C@H]1CN[C@H](COCc2ccc(Cl)cc2)C1)c1cccc2cnccc12
-1

Entry to check: CNCCNS(=O)(=O)c1cccc2cnccc12
-1

###

IC50 listing for selected molecules.
# Tested On: RAC-beta serine/threonine-protein kinase (Homo sapiens, UniProt P31751)
# Sequence (P31751 whole entry): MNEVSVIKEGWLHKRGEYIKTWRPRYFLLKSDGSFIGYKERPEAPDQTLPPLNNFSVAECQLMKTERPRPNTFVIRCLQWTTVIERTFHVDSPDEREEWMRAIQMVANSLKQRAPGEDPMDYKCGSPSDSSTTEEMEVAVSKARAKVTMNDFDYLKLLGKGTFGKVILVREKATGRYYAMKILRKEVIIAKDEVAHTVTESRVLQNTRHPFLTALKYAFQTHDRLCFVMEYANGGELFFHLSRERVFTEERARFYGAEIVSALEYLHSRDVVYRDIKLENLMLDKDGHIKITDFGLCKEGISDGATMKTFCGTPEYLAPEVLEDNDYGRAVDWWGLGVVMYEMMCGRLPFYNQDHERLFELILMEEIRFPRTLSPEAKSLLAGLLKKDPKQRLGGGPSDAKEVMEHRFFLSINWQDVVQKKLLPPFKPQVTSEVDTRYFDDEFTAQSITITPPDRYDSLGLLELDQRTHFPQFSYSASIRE
# Test Details: PKB In Vitro Enzyme Assay
Kindly provide the numeric value in µM only, without the unit symbol.

O=S(=O)(NCC1CCNCC1)c1cccc2cnccc12: 57
O=S(=O)(NC[C@@H]1C[C@@H](OCc2ccc(Cl)cc2)CN1)c1cccc2cnccc12: 1.7
N[C@H]1CC[C@H](NS(=O)(=O)c2cccc3cnccc23)CC1: 8.1

Give its IC50 value. Item: O=S(=O)(NC[C@@H]1CCCN1)c1cccc2cnccc12
39

###

# Tested On: cAMP-dependent protein kinase catalytic subunit alpha (Bos taurus)
# Test Details: PKA In Vitro Enzyme Assay
# T = IC50 below 400 nM (exclusive); F = IC50 at/above 400 nM

Examples from the recorded data:
N[C@H]1CC[C@H](NS(=O)(=O)c2cccc3cnccc23)CC1: F
O=S(=O)(NC[C@@H]1C[C@H](OCc2ccc(Cl)cc2)CN1)c1cccc2cnccc12: T
O=c1[nH]ccc2c(S(=O)(=O)N[C@@H]3CN[C@H](COCc4ccc(Cl)cc4)C3)cccc12: F
Cc1cncc2cccc(S(=O)(=O)N[C@@H]3CN[C@H](COCc4ccc(Cl)cc4)C3)c12: T

Hi there! Is IC50 for O=S(=O)(N[C@@H]1CN[C@H](COCc2ccc(Cl)cc2)C1)c1cccc2cnccc12 below 400 nM, do you know?
F

###

# Tested On: cAMP-dependent protein kinase catalytic subunit alpha (Bos taurus, UniProt P00517)
# Test Details: PKA In Vitro Enzyme Assay
# Condition Details: pH 7.2; 22 °C
Measurement Name: IC50 (nM)
Kindly provide the numeric value in nM only, without the unit symbol.

Observe how each entry below is paired with its result.
O=S(=O)(NCCNCCOCc1ccccc1Cl)c1cccc2cnccc12: 1000
O=S(=O)(NCCNCCOCc1cccc(Cl)c1)c1cccc2cnccc12: 410

In the following, a different molecule is considered.
Give its IC50 value. Item: O=S(=O)(NC1CCNCC1)c1cccc2cnccc12
3900

###

# Tested On: RAC-beta serine/threonine-protein kinase (Homo sapiens)
# Test Details: PKB In Vitro Enzyme Assay
# Condition Details: pH 7.2; 22 °C
# 1 = IC50 below 1000 nM (exclusive); 0 = IC50 at/above 1000 nM

Examples from the recorded data:
COc1ccccc1COCCNCCNS(=O)(=O)c1cccc2cnccc12: 0
O=S(=O)(NCCNCCOCc1ccccc1)c1cccc2cnccc12: 0
Cc1ccc(COCCNCCNS(=O)(=O)c2cccc3cnccc23)cc1: 0
O=S(=O)(NCCNCCOCc1ccccc1Cl)c1cccc2cnccc12: 1
Cc1cccc(COCCNCCNS(=O)(=O)c2cccc3cnccc23)c1: 0
COc1cccc(COCCNCCNS(=O)(=O)c2cccc3cnccc23)c1: 0
O=S(=O)(NC1CCNCC1)c1cccc2cnccc12: 0
COc1ccc(COCCNCCNS(=O)(=O)c2cccc3cnccc23)cc1: 0
NCCCNS(=O)(=O)c1cccc2cnccc12: 0
O=S(=O)(NCCNCCOCc1ccc(Cl)c(Cl)c1)c1cccc2cnccc12: 1

Hi there! Is IC50 for O=S(=O)(NCCNCCOCc1cccc(Cl)c1)c1cccc2cnccc12 below 1000 nM, do you know?
1

Entry to check: O=S(=O)(c1cccc2cnccc12)N1CCNCC1
0

Entry to check: Cc1ccccc1COCCNCCNS(=O)(=O)c1cccc2cnccc12
1
